- METHOD DESCRIPTION: small-molecule microarray binders of probe aShh, primary screen, biochemical, biotinylated probe, 635/667 nm fluorescence (AID 1114);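 further: probe is biotin-labelled aShh protein from a stem cell growth factor screen; measures binding of labelled protein to compounds printed on the slide; score merges feature fluorescence at 667 nm with signal-to-noise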
- CONDITION LABEL: higher = more signal
READOUT KIND: composite z-score
Give a plain numeric answer without units written out.

Example entries begin here.
Exam item: Request the reported composite z-score associated with C#CCCCON=C1C[C@@H](O)[C@@H](O)[C@@H]2[C@@H]3C(=O)N(CC)C(=O)[C@@H]3CC[C@@H]12
Marked response: -0.197

Exam item: Please answer likewise for CCOC(=O)[C@H](Cc1ccccc1)NC(=O)CCC1CC(OC(=O)NCCc2ccc(F)cc2)CC2(CCCC(COC(=O)NCCOC)O2)O1 (some centres undefined)
Marked response: 0.131

Exam item: Continue with C=CC[C@@H]1C=C[C@H](ON=C(C)CCC(=O)OC[C@H]2O[C@H](C#Cc3ccccc3)C=C[C@@H]2Oc2ccc(C)cc2)[C@@H](CO)O1
Marked response: 0.0639

Continuing:
Exam item: composite z-score lookup needed for CO[C@H]1COC(=O)CC=C[C@@H](C)[C@H](OC)COC(=O)CCC[C@@H]1C , thanks.
Marked response: -0.0709

====

- METHOD DESCRIPTION: A549 lung cancer cell viability effects, profiling panel, resazurin fluorescence, 24 h, PK04 Diversity Set (AID 1171); further: test concentration not given here
- CONDITION LABEL: higher = more signal, called active from +8 up or from −8 down
z-score by entry:
Just the number, please, no unit attached.

Some compounds with recorded z-score:
Exam item: What measured z-score goes with COC(=O)C1=C(C)N(Cc2ccccc2)[C@]23O[C@](C(=O)OC)(C(=O)N2[C@@H]1c1ccccc1)C(C(=O)OC)=C3C(=O)OC ?
Marked response: -0.645

Exam item: Next entry: COC(=O)CC=C[C@@H](C)[C@@H](C=NO[C@@H](C)c1cn([C@H](CO)Cc2ccccc2)nn1)OC
Marked response: -0.493

Exam item: Next entry: O=C1[C@H]2[C@H]3[C@H](O)[C@H](O)CC(=NOCc4ccccc4)[C@@H]3CC[C@H]2C(=O)N1C[C@@H]1CCCO1
Marked response: 0.232

Exam item: For O=C1[C@H]2[C@H]3[C@H](O)[C@H](O)CC(=NOC[C@@H](O)COCc4ccco4)[C@@H]3CC[C@H]2C(=O)N1C[C@@H]1CCCO1 then?
Marked response: 0.0753

***
Exam item: Can you share its z-score? I mean this compound: CCOC(=O)[C@H](Cc1ccccc1)NC(=O)CCC1CC(OC(=O)NCc2cccc3ccccc23)CC2(CCCC(COC(=O)NCc3cccc(C(F)(F)F)c3)O2)O1 (some centres not stated)
Marked response: -0.106

Exam item: Repeat with CC(CCC(=O)OC[C@H]1O[C@H](C#Cc2ccccc2)C=C[C@@H]1Oc1ccc(C)cc1)=NO[C@H](C)c1cn([C@H](CO)Cc2ccccc2)nn1
Marked response: 0.804

Exam item: And the next one, CC(=O)OC[C@H]1OC(ON=CC[C@@H]2C=C[C@H](OC(C)=O)[C@@H](COC(C)=O)O2)[C@H](OC(C)=O)[C@@H](OC(C)=O)[C@@H]1OC(C)=O (some centres not stated) ?
Marked response: 0.103

====

- ASSAY SYSTEM: Epidermal growth factor receptor (Homo sapiens) (UniProt P00533)
- Sequence (P00533 whole entry, looked up): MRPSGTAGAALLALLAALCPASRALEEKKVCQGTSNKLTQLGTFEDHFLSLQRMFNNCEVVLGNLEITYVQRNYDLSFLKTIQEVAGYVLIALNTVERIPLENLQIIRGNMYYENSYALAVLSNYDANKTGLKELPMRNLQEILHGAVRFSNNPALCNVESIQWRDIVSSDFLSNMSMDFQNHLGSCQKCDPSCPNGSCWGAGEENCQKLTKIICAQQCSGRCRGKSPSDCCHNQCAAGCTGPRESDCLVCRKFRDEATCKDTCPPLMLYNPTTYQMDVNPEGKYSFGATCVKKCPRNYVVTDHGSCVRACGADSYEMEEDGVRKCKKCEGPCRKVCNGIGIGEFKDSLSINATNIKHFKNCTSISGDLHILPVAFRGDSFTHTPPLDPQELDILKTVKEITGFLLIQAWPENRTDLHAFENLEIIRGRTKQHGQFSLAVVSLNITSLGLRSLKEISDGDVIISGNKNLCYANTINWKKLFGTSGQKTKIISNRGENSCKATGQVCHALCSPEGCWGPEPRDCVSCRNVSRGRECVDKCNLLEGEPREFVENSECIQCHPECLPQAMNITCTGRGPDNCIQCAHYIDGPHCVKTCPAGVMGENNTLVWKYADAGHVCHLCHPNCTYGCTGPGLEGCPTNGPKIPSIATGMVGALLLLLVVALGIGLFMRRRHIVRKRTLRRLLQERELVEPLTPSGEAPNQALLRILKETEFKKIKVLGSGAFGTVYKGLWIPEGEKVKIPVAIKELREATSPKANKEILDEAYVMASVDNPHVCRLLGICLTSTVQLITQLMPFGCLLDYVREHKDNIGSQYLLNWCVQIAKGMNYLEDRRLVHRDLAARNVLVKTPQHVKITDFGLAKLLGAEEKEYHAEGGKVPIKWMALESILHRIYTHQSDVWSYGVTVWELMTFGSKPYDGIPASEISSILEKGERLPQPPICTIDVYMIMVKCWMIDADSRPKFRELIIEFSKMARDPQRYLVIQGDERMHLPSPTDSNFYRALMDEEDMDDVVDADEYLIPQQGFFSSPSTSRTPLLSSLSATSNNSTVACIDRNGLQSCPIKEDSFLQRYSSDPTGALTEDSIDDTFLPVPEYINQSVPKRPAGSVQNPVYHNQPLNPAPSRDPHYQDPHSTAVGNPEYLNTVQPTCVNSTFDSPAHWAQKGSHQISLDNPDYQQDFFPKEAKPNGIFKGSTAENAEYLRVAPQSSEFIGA
- METHOD DESCRIPTION: EGFR binders on small-molecule microarrays, primary screen, biochemical, small-molecule microarray, 635 nm fluorescence (AID 1104);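 further: score merges 667 nm emission intensity with spot signal to noise over triplicate slides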
- CONDITION LABEL: EGFR binding, higher = more signal
READOUT KIND: composite z-score
Please give the numeric answer without any surrounding text.

Exam item: Item CCOC(=O)C1=NO[C@@]2(C=C(Br)C3(OCCCO3)[C@H]3O[C@H]32)C1 has what recorded composite z-score?
Marked response: 1.13

***
Exam item: Sample O=C1[C@H]2[C@H]3[C@H](O)[C@H](O)CC(=NOC[C@@H](O)COCc4ccco4)[C@H]3CC[C@H]2C(=O)N1Cc1ccccc1 — what was its composite z-score?
Marked response: 0.522

Exam item: Please give the result for COc1ccc(O[C@H]2C=C[C@@H](c3ccccc3)O[C@@H]2CON=C(C)CCN2CCc3nc(-c4ccccc4)c(-c4ccccc4)cc3C2)cc1 too.
Marked response: -0.538

====

- METHOD DESCRIPTION: CREB reporter modulators without forskolin, primary screen, cell-based, PC12, CRE-LacZ reporter, unstimulated (AID 1145)
- CONDITION LABEL: no forskolin, luminescence, 4.5 h, higher = more signal, called active from +8 up or from −8 down
READOUT KIND: z-score
# answer = number (no unit)

Below are worked cases with known answers.
Exam item: Return reported z-score; argument: COC(=O)CC=C[C@@H](C)[C@H](OCc1cccc(-c2ccccc2)c1)C1CCCCC1
Marked response: 0.68

Exam item: Can you check CO[C@H]1COC(=O)CCC[C@@H](C)[C@H](OC)COC(=O)[C@@H]2CCCN2C(=O)CC=C[C@@H]1C next?
Marked response: -0.385

Exam item: Request: COC(=O)CC=C[C@@H](C)[C@@H](C=NO[C@@H]1O[C@H](COC(C)=O)[C@@H](OC(C)=O)[C@H](OC(C)=O)[C@H]1OC(C)=O)OC
Marked response: 0.834

Others:
Exam item: Reported z-score for CC(C)=CCCC(C)=CCON=C1C[C@@H](O)[C@@H](O)[C@@H]2[C@@H]3C(=O)N(C(C)(C)C)C(=O)[C@@H]3CC[C@H]12 : what is it?
Marked response: 0.7

Exam item: Record: CC(C)(C)N1C(=O)[C@H]2[C@H]3[C@H](O)[C@H](O)CC(=NOCc4ccccc4)[C@H]3CC[C@H]2C1=O
Marked response: 0.968

Exam item: Then this compound: Cc1cc2c(nc1C)CCCN2CC(O)CN1CCCc2nc(C)c(C)cc21
Marked response: -0.704

Exam item: Entry to check: CCOC(=O)[C@H](CC(C)C)NC(=O)CCC1CC(OC(=O)NCc2cccc3ccccc23)CC2(CCCC(COC(=O)NCCCN3CCCC3=O)O2)O1 (some centres not stated)
Marked response: -0.437

====

- ASSAY SYSTEM: Pro-neuregulin-1, membrane-bound isoform (Homo sapiens)
- METHOD DESCRIPTION: NRG1 binders on small-molecule microarrays, primary screen, psychiatric disease protein project, biochemical, small-molecule microarray, fluorescence 635/667 (AID 1075);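 further: score combines 667 nm spot fluorescence with signal to noise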
- CONDITION LABEL: NRG1 binding, 635 nm fluorescence, higher = more signal
yes means recorded composite z-score is -0.04 or above; no means it is below -0.04.

Reference set (3 entries):
Exam item: Answer whether composite z-score of CO[C@@H]1COC(=O)CC=C[C@H](C)[C@H](OC)COC(=O)[C@H](C)NC(=O)CC=C[C@H]1C is greater than or equal to -0.04.
Marked response: no

Exam item: Next record, please: Cc1ccc(S(=O)(=O)NC(CCc2ccccc2)CC(=O)C(C)(C)C)cc1 (stereo unspecified)
Marked response: yes

Exam item: What about this compound? CC(C)(C)N1C(=O)[C@H]2[C@H]3[C@H](O)[C@H](O)CC(=NOCc4ccccc4)[C@H]3CC[C@H]2C1=O
Marked response: no

***
Exam item: Record CO[C@H]1COC(=O)CC=C[C@H](C)[C@@H](OC)COC(=O)[C@@H](C)NC(=O)CC=C[C@@H]1C ; criterion: composite z-score no lower than -0.04. Met?
Marked response: no

Exam item: Repeat with CO[C@H]1COC(=O)[C@@H](C)COC(=O)[C@@H](OCc2ccccc2)C=C[C@@H]1C
Marked response: no

====

- ASSAY SYSTEM: Neurogenic locus notch homolog protein 2 (Homo sapiens) (UniProt Q04721)
- Sequence (Q04721 whole entry, looked up): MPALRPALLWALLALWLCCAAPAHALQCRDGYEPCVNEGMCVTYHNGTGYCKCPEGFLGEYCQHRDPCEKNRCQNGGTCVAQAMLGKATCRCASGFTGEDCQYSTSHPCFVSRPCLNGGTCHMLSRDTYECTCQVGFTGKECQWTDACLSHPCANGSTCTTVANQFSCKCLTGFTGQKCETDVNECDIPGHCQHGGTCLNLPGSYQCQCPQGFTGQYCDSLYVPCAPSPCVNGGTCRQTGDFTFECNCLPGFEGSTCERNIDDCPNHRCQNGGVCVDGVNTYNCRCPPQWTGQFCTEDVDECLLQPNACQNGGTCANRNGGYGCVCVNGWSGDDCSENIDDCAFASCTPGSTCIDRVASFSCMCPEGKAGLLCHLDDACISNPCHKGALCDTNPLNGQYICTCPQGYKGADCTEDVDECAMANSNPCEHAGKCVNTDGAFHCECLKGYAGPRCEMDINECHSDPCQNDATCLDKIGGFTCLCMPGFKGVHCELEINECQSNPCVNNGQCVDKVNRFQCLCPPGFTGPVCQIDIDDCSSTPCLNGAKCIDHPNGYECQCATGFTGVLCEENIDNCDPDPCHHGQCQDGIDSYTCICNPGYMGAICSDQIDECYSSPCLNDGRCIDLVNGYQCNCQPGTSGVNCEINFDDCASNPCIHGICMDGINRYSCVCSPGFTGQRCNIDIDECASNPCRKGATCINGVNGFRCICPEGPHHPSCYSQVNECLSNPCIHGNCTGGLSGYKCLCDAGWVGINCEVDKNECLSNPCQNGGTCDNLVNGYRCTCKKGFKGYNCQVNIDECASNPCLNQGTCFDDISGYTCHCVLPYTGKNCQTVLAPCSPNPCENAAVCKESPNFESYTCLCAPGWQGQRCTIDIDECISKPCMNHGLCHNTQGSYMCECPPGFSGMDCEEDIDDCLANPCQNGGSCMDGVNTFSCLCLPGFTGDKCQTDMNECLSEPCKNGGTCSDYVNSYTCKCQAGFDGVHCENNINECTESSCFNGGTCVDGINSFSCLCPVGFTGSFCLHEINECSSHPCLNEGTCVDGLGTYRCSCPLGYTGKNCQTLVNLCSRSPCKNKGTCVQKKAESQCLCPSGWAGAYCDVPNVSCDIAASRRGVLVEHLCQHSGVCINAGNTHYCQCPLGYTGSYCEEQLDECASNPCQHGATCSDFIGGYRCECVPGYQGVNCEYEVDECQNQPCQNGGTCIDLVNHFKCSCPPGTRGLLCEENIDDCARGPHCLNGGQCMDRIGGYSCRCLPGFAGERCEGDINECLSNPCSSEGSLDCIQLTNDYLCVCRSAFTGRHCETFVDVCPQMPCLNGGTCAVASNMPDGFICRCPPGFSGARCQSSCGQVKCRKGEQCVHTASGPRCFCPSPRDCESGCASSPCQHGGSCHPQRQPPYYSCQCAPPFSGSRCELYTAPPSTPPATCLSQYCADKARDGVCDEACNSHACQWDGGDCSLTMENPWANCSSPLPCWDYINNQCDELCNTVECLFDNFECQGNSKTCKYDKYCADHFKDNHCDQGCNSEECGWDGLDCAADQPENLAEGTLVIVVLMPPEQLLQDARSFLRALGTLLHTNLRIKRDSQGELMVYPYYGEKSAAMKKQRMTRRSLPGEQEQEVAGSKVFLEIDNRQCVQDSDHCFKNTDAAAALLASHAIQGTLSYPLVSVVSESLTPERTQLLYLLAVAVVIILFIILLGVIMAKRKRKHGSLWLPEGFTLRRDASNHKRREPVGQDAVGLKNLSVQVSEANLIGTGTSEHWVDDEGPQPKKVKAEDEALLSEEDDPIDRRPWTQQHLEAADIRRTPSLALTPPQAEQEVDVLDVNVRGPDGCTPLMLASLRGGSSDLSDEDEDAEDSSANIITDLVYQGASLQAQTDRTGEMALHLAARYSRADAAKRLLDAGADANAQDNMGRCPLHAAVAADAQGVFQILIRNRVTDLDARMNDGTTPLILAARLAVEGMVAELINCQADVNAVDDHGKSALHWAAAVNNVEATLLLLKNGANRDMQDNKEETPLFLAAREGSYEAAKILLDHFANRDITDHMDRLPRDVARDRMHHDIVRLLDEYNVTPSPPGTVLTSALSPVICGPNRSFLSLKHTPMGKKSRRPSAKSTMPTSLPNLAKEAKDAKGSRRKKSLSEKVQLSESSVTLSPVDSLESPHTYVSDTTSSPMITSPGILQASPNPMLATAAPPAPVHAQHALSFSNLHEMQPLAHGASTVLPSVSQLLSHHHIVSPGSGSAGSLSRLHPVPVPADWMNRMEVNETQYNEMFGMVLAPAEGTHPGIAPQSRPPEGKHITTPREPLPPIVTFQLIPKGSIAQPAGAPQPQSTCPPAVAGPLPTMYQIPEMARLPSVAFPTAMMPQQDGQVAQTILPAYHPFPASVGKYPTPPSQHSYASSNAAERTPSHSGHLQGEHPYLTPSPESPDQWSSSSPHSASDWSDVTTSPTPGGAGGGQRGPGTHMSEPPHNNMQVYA
- METHOD DESCRIPTION: Notch2 binders on small-molecule microarrays, primary screen, biochemical, small-molecule microarray, 635 nm fluorescence, stem cell growth factors (AID 1073)
- CONDITION LABEL: Notch2 binding, higher = more signal
READOUT KIND: composite z-score
Respond using a number only.

Exam item: # lookup: composite z-score of O=C1[C@H]2[C@H]3[C@H](O)[C@H](O)CC(=NOC[C@@H](O)COCc4ccco4)[C@H]3CC[C@H]2C(=O)N1c1ccc(F)cc1F
Marked response: -0.853

Exam item: Same read-out for Cc1ccc(S(=O)(=O)N[C@H]2COC(=O)CC=C[C@H](C)[C@@H](NS(=O)(=O)c3ccc(C)cc3)COC(=O)CC=C[C@@H]2C)cc1 ?
Marked response: 0.434

Exam item: Next compound: CC(C)=CCCC(C)=CCON=C1C[C@@H](O)[C@@H](O)[C@@H]2[C@@H]3C(=O)N(Cc4ccccc4)C(=O)[C@@H]3CC[C@@H]12
Marked response: 0.194

Exam item: Same lookup for CC[C@@H](c1ccccc1)n1c(=O)n2n(c1=O)[C@H]1[C@H](O)[C@@H]3O[C@@H]3C(=O)[C@H]1CC2 , please.
Marked response: 0.395

Exam item: And CC(=O)O[C@H]1C2=CO[C@H](C)[C@H]3[C@H]4C5=C([C@H](O)[C@H]6O[C@H]6C5=O)[C@H](OC4C)[C@@]23C(=O)[C@@H]2O[C@@H]21 (stereo partly specified) ?
Marked response: 0.673

For the next question, use this compound.
Exam item: Given the compound COc1ccc(O[C@H]2C=C[C@@H](c3ccccc3)O[C@@H]2CON=C(C)CCN2CCc3nc(-c4ccccc4)c(-c4ccccc4)cc3C2)cc1 , what is its reported composite z-score?
Marked response: -0.167
